target: Dihydroorotate dehydrogenase (quinone), mitochondrial (Homo sapiens, UniProt Q02127); assay: Inhibition of human recombinant N-terminal His-tagged DHODH (31 to 395 residues) expressed in Escherichia coli using DHO as substrate measured after 20 mins by DCPI dye-based assay
Sequence (Q02127 whole entry, the tested form may be a part): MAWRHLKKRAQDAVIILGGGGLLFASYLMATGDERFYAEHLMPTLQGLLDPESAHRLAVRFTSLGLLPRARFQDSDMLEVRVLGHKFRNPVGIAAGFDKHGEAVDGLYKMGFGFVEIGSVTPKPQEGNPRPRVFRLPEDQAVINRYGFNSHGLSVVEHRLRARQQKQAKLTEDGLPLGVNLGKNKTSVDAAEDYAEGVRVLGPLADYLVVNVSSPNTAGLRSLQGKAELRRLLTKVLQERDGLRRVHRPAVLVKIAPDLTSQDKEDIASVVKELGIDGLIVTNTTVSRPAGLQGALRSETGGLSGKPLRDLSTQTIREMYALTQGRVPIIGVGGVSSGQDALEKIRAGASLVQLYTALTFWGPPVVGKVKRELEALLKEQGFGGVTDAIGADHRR
Measured Attribute: IC50 (µM)

a. COc1ccc(-c2cc(C(=O)OCc3ccccc3)c3cc(C)ccc3n2)cc1
b. Cc1ccc2nc(-c3ccc(Cl)cc3)cc(C(=O)OCc3ccccc3)c2c1
c. COc1ccc(-c2cc(COCc3ccccc3)c3cc(Cl)c(Cl)cc3n2)cc1
Rank entries according to their IC50, from the largest number down. Write the labels out in the order the request specifies.
c, b, a

---

target: UniProtKB Q02127; assay: Inhibition of human recombinant N-terminal His-tagged DHODH (31 to 395 residues) expressed in Escherichia coli using DHO as substrate measured after 20 mins by DCPI dye-based assay
pIC50: −log10 of the molar value.
Measured Attribute: pIC50

>  <Input Smiles>
Clc1ccc(-c2cc(COCc3ccccc3)c3cc(Cl)c(Cl)cc3n2)cc1

>  <pIC50>
5.91

$$$$

I. Cc1ccc2nc(-c3ccc(F)cc3)cc(C(=O)OCc3ccccc3)c2c1
II. COc1ccc(-c2cc(C(=O)OCc3ccccc3)c3cc(Cl)c(Cl)cc3n2)cc1
III. Cc1ccc2nc(-c3ccc(F)cc3)cc(COCc3ccccc3)c2c1
IV. O=C(OCc1ccccc1)c1cc(-c2ccc(Cl)cc2)nc2cc(Cl)c(Cl)cc12
Sort entries by pIC50 from minimum to maximum value. Write the labels out in the order the request specifies.
III, IV, II, I

Ref: ChEMBL document CHEMBL4422683
